Provenance of the data: patent US5179117A

Target: acyl-CoA: cholesterol acyltransferase (ACAT) (Mus musculus, UniProt Q61263)
Construct: endogenous in cells
Sequence (Q61263 1-540): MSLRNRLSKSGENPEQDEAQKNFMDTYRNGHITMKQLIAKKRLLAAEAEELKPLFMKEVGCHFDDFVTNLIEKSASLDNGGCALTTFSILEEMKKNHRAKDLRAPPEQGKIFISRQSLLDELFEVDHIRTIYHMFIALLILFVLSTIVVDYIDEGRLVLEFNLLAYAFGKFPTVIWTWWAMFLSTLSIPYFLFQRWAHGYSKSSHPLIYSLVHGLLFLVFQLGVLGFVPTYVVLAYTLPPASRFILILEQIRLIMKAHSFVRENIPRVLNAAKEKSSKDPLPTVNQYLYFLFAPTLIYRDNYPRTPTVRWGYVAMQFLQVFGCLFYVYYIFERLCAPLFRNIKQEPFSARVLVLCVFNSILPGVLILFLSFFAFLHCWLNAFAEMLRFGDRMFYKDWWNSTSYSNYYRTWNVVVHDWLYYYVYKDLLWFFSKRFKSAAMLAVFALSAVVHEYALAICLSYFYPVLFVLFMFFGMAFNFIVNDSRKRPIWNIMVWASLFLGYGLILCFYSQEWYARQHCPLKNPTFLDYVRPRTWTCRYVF
Experiment: Assay of the inhibition of cholesterol esterification in mammalian cells (J774.A1 macrophages, 14C-oleic acid incorporation into cholesteryl ester, ac-LDL loaded)
Details: murine macrophage-like cell line J774.A1, ac-LDL loaded, 14C-oleic acid pulse; read-out: Cholesterol Esterification IC50 (concentration at which ACAT activity is inhibited by 50%)
Procedure: The esterification of cholesterol was determined in the murine macrophage-like cell line J774.A1. Cells were seeded in 35 mm wells at a density of 300,000 cells per well in 2 mls of Dulbecco's Eagle Medium (DMEM) supplemented with 10% fetal bovine serum (FBS). Cells were incubated at 37° C. in an atmosphere of 5% CO2 and 93% humidity. […] Individual lipids were visualized with iodine and the cholesteryl ester spot cut out and transferred to scintillation vials to determine the amount of radioactivity. […]
Where a name gives a salt, the structure may show the parent alone.
reported.property: IC50 (nM)

Recorded results for 5 compounds are shown here.
> print(dat)
                                   compound  measure.unit  recorded.value
1  COC(=O)[C@H](CCCCN)NC(=O)CCCSc1nc(-c2ccc(OC)cc2)c(-c2ccc(OC)cc2)[nH]1 [Example 2, hydrobromide]            nM          100000
2  CCCCCC(=CCCCCSc1nc(-c2ccccc2)c(-c2ccccc2)[nH]1)C(=O)O [Example 11]            nM           13400
3  COC(=O)[C@H](CCCCNC(C)=O)NC(=O)CCCSc1nc(-c2ccc(OC)cc2)c(-c2ccc(OC)cc2)n1C(C)=O [Example 5]            nM            7150
4  CCCCCC(=CCCCCSc1nc(-c2ccccc2)c(-c2ccccc2)[nH]1)C(=O)OCC [Example 10]            nM            4620
5  CCCC[C@H](NC(=O)CCCSc1nc(-c2ccc(OC)cc2)c(-c2ccc(OC)cc2)[nH]1)C(=O)OC [Example 9]            nM             650

(1) COC(=O)[C@H](CCCCNC(=O)OCc1ccccc1)NC(=O)CCCSc1nc(-c2ccc(N(C)C)cc2)c(-c2ccc(N(C)C)cc2)[nH]1 [Example 8]
(2) COC(=O)[C@H](CCCCNC(=O)OCc1ccccc1)NC(=O)CCCSc1nc(-c2ccc(OC)cc2)c(-c2ccc(OC)cc2)[nH]1 [Example 1]
Ask: Which is greater in IC50, the first item 1 or the second item 2 ? Use the label to indicate which entry you chose.
Result: 2
(2: 37 nM, 1: 4.9 nM)

(1) COc1ccc(-c2nc(SCCCC(=O)N[C@@H](CCCCNC(=O)OCc3ccccc3)C(=O)NC(C)C)[nH]c2-c2ccc(OC)cc2)cc1 [Example 7]
(2) COC(=O)[C@H](CCCCNC(C)=O)NC(=O)CCCSc1nc(-c2ccc(OC)cc2)c(-c2ccc(OC)cc2)[nH]1 [Example 6]
Ask: Which is greater in IC50, the first item 1 or the second item 2 ? Use the label to indicate which entry you chose.
Result: 2
(2: 10300 nM, 1: 1100 nM)

(A) COC(=O)[C@H](CCCCNC(=O)C12CC3CC(CC(C3)C1)C2)NC(=O)CCCSc1nc(-c2ccc(OC)cc2)c(-c2ccc(OC)cc2)[nH]1 [Example 3]
(B) COC(=O)[C@H](CCCCNC(=O)NCc1ccccc1)NC(=O)CCCSc1nc(-c2ccc(OC)cc2)c(-c2ccc(OC)cc2)[nH]1 [Example 4]
Ask: Of A and B , which carries the smaller reported IC50 figure? Use the label to indicate which entry you chose.
Result: A
